B1: glmS ribozyme (parent)
chain: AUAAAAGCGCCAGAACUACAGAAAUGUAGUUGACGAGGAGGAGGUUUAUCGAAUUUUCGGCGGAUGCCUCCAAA

Variants of: B1
test_description: self-cleavage kobs at 10000 uM GlcN6P; higher = faster cleavage; RNA array
condition_description: with glucosamine-6-phosphate
This sample holds only a part of the variants without activity.
For each record, write down the corresponding self-cleavage kobs at 10000 uM GlcN6P.

1) A12U G13A C50G C67U : 0.000124 s⁻¹
2) G37C G51U : < 1e-05 s⁻¹
3) A15U G51U C71A : < 1e-05 s⁻¹
4) U31C G38C U45A C50A C58U : < 1e-05 s⁻¹
5) C34U U47C : < 1e-05 s⁻¹
6) C10U G63U C70U : < 1e-05 s⁻¹
7) A14G U47A G66C : 0.00125 s⁻¹
8) C16G A33U : 3.36e-05 s⁻¹

Hi! Can you tell me self-cleavage kobs at 10000 uM GlcN6P for each of these variants?
1. U47C C50U
2. G7C U54A
3. G13U G43C C67U
4. A14C U30G A33G G37A C68G
5. G9C C67G

[A]
3.82e-05 s⁻¹
< 1e-05 s⁻¹
< 1e-05 s⁻¹
< 1e-05 s⁻¹
< 1e-05 s⁻¹

Kindly give each listed record's self-cleavage kobs at 10000 uM GlcN6P.
1. U30C G37A
2. G37C A42C U57A

[A]
["2.44e-05 s⁻¹", "< 1e-05 s⁻¹"]

// input: 5 variants below; output: self-cleavage kobs at 10000 uM GlcN6P for each
1. A33C G44C G60A
2. A12U G29C U46A
3. G40U G59C G60U C70G
4. G32U A36C A53U U54A G63U
5. G13C A14G

[A]
1: < 1e-05 s⁻¹; 2: 0.000658 s⁻¹; 3: < 1e-05 s⁻¹; 4: < 1e-05 s⁻¹; 5: 0.000855 s⁻¹

Please supply self-cleavage kobs at 10000 uM GlcN6P for each of the following items, keeping them in order.
1. C16A A42C
2. A33U G63C

[A]
< 1e-05 s⁻¹
< 1e-05 s⁻¹
